target_or_test_system: DNA dC->dU-editing enzyme APOBEC-3A (Homo sapiens, UniProt P31941)
Sequence (P31941 whole entry): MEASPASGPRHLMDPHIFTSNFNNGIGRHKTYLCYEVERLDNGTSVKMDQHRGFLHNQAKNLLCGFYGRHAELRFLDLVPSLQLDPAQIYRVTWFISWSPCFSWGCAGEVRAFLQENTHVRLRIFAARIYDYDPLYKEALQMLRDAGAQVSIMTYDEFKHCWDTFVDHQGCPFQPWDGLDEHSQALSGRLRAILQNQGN
method_summary: Dose Response confirmation of small molecule APOBEC3A DNA Deaminase Inhibitors via a fluorescence-based single-stranded DNA deaminase assay. [Related pubchem assays (depositor defined):AID493011, AID493024]
Assay type: functional
The source made the active and inactive calls.
quantity_kind: IC50

Query: Name the recorded IC50 for COC(=O)C1=C(C)N(Cc2ccccc2)C(=NCC(C)C)N[C@H]1c1ccccc1 .
Reply: 4.65 µM (active)

Query: Name the recorded IC50 for COC(=O)Cn1cc(/C=C/c2cc[n+](C)cc2)c2ccccc21 .
Reply: 3.05 µM (active)

Query: Name the recorded IC50 for Cn1nc([N+](=O)[O-])nc1S(C)(=O)=O .
Reply: 4.14 µM (active)

Query: Name the recorded IC50 for CCN1CCN(S(=O)(=O)c2ccc(Cl)c(C(=O)N(C)C(c3ccccc3)c3ccccc3)c2)CC1 .
Reply: 4.6 µM (active)

---

target_or_test_system: Methionyl-tRNA synthetase, putative (Trypanosoma brucei brucei)
Sequence (Q38C91 whole entry): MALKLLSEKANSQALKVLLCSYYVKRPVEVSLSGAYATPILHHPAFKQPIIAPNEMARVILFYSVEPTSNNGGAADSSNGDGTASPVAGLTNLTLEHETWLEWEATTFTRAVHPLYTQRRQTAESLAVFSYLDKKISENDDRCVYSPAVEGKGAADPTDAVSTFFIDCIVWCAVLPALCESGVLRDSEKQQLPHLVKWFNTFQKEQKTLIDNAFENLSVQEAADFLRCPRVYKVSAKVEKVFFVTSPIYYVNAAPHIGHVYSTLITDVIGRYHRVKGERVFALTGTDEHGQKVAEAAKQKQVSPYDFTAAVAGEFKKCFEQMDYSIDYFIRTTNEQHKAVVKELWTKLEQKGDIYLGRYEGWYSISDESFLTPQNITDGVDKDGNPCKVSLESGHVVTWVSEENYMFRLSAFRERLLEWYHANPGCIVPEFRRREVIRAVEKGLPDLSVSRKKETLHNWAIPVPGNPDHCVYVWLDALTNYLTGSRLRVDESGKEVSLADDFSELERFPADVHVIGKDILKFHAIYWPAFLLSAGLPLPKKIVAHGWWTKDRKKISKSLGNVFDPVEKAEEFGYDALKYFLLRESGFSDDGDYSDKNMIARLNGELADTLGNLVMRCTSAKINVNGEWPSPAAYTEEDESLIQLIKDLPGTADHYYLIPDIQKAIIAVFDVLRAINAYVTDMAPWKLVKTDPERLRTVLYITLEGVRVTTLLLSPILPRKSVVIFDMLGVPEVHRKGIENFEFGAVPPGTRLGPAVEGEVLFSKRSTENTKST
Type: functional, Trypanosoma brucei brucei strain 927/4 GUTat10.1
Calls of active or inactive are those of the source.
Return exactly one item of 1 for active, -1 for inactive

Query: Recorded call for COC(=O)c1sc(-c2ccc(Cl)cc2)cc1NC(=O)CSCC(=O)O ?
Reply: -1

Query: Recorded call for Cc1nc2ccc(Br)cc2c(O)c1CN1CCCCCC1 ?
Reply: 1

Query: Recorded call for O=C(NCc1nc2ccccc2[nH]1)C1=C[C@@H](C2CC2)C[C@@H](OCc2ccc(CO)cc2)O1 ?
Reply: 1

Query: Recorded call for COc1cc2nc(Nc3cccc(F)c3)nc(N)c2cc1OC ?
Reply: -1

---

target_or_test_system: Methionyl-tRNA synthetase, putative (Trypanosoma brucei brucei, UniProt Q38C91)
Sequence (Q38C91 whole entry): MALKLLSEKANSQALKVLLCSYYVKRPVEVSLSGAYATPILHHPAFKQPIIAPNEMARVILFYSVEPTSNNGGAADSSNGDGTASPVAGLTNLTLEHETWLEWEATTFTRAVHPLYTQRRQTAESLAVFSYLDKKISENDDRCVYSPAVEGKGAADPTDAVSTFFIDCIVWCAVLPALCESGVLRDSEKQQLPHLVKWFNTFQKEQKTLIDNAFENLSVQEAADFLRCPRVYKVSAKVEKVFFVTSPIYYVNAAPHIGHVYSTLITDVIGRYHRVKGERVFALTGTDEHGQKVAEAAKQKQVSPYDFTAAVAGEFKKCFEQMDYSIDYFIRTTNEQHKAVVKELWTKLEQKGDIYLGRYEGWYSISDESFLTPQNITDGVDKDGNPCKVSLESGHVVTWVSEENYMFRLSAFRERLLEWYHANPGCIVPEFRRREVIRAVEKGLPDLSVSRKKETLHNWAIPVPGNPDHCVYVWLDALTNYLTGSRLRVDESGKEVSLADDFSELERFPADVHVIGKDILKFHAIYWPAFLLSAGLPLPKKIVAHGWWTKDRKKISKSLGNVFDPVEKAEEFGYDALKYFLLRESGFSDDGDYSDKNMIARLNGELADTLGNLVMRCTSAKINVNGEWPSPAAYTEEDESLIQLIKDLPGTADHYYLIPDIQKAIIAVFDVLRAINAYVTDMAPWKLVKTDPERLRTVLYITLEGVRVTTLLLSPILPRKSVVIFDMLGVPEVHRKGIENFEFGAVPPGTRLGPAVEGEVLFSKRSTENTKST
Type: functional, Trypanosoma brucei brucei strain 927/4 GUTat10.1
Calls of active or inactive are those of the source.
Return exactly one item of Yes = active, No = inactive

Query: Recorded call for COc1cc2nc(Nc3cccc(F)c3)nc(N)c2cc1OC ?
Reply: No

Query: Recorded call for Cc1nc2ccc(Br)cc2c(O)c1CN1CCCCCC1 ?
Reply: Yes

Query: Recorded call for O=C(NCc1nc2ccccc2[nH]1)C1=C[C@@H](C2CC2)C[C@@H](OCc2ccc(CO)cc2)O1 ?
Reply: Yes

Query: Recorded call for COC(=O)c1sc(-c2ccc(Cl)cc2)cc1NC(=O)CSCC(=O)O ?
Reply: No

---

For each entry below, report its EC50 value.
Test system: Streptococcus
method_summary: GAS UMAA2166 growth inhibition – luminescence, BacTiterGlo, counter-screen for streptokinase expression inhibitor project, dose response (AID 1915);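 note: potency for reduction of bacterial viability or growth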
Format: functional, organism-based
Calls of active or inactive are those of the source.

Query: Name the recorded EC50 for CC1=Nc2ccccc2/C1=C\c1nc(-c2ccc(F)cc2)oc1O .
Reply: > 150 µM (not active)

Query: Name the recorded EC50 for CCSc1nnc2nc3c(c(O)n12)C1(CCCC1)Cc1ccccc1-3 .
Reply: 8.43 µM (active)

Query: Name the recorded EC50 for CCN(CC)c1nc(Nc2ccc([N+](=O)[O-])cc2)nc(N(CC)CC)n1 .
Reply: 15.7 µM (active)

Query: Name the recorded EC50 for Cc1noc(C)c1S(=O)(=O)N(CCc1ccccc1)Cc1ccccc1 .
Reply: > 150 µM (not active)

Query: Name the recorded EC50 for Nc1nn2c(O)cc(-c3ccccc3)nc2c1N=Nc1ccc2c(c1)OCO2 .
Reply: 3.77 µM (active)

Query: Name the recorded EC50 for Cn1c2ccccc2c(=O)c2c(=O)n(C3CCCCC3)c(-c3cccs3)nc21 .
Reply: 39.2 µM (active)

Query: Name the recorded EC50 for CCN1/C(=C/c2ccc3cc(C)ccc3[n+]2CC)Sc2ccc3sccc3c21 .
Reply: 4.44 µM (active)

---

target_or_test_system: FAD-linked sulfhydryl oxidase ALR (Homo sapiens, UniProt P55789)
Sequence (P55789 whole entry): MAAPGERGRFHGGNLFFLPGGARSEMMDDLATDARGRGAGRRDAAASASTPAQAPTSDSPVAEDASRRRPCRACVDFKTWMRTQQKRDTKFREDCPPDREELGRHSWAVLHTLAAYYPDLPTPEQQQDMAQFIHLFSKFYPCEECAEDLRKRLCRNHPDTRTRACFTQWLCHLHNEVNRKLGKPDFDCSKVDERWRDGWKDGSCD
method_summary: ALR-catalysed DTT oxidation blockers – biochemical, H2O2 detection, luminescence, cherry-pick, dose response (AID 493248)
Activity calls are given as the source filed them.
For each entry below, report its AC50 value.

Query: What reported AC50 corresponds to Cc1ccnc(NC(c2ccccn2)c2c(C)[nH]c3ccccc23)c1 (centres undefined) on FAD-linked sulfhydryl oxidase ALR (Homo sapiens, UniProt P55789)?
Reply: 1.39 µM (active)

Query: What reported AC50 corresponds to COc1ccc(C(=O)c2ccc(Cl)c([N+](=O)[O-])c2)cc1 on FAD-linked sulfhydryl oxidase ALR (Homo sapiens, UniProt P55789)?
Reply: 3.95 µM (active)

Query: What reported AC50 corresponds to CN1CCCNc2nc3ccccc3nc21 on FAD-linked sulfhydryl oxidase ALR (Homo sapiens, UniProt P55789)?
Reply: 9.27 µM (active)

Query: What reported AC50 corresponds to O=C(NNc1c2ccccc2nc2ccccc12)c1cccc(O)c1 on FAD-linked sulfhydryl oxidase ALR (Homo sapiens, UniProt P55789)?
Reply: 0.738 µM (active)

Query: What reported AC50 corresponds to Cc1noc(C)c1C(=O)Nc1ccc(N(C)C)cc1 on FAD-linked sulfhydryl oxidase ALR (Homo sapiens, UniProt P55789)?
Reply: 1.3 µM (active)

Query: What reported AC50 corresponds to COc1ccc2[nH]c3ccc(OC)cc3c2c1 on FAD-linked sulfhydryl oxidase ALR (Homo sapiens, UniProt P55789)?
Reply: 8.33 µM (active)

Query: What reported AC50 corresponds to O=C(Nc1nnc(-c2ccc3c(c2)CCCC3)o1)c1c(F)cccc1F on FAD-linked sulfhydryl oxidase ALR (Homo sapiens, UniProt P55789)?
Reply: 7.99 µM (active)

Query: What reported AC50 corresponds to Cc1ccc2nccc(C(=O)N3CCCC(Nc4ccc(F)cc4)C3)c2c1 (centres undefined) on FAD-linked sulfhydryl oxidase ALR (Homo sapiens, UniProt P55789)?
Reply: 3.03 µM (active)

Query: What reported AC50 corresponds to COc1cccc(N2CCN(C(=O)C3CCCN(S(=O)(=O)c4c[nH]cn4)C3)CC2)c1 (centres undefined) on FAD-linked sulfhydryl oxidase ALR (Homo sapiens, UniProt P55789)?
Reply: 16.8 µM (active)
